Property: pERK EC50 (nM); scope: individual binders
Target: T1, human MIC-1 receptor (hGFRAL, GDNF family receptor alpha like), full length (human, UniProt Q6UXV0 19-394)
T1 sequence (looked up): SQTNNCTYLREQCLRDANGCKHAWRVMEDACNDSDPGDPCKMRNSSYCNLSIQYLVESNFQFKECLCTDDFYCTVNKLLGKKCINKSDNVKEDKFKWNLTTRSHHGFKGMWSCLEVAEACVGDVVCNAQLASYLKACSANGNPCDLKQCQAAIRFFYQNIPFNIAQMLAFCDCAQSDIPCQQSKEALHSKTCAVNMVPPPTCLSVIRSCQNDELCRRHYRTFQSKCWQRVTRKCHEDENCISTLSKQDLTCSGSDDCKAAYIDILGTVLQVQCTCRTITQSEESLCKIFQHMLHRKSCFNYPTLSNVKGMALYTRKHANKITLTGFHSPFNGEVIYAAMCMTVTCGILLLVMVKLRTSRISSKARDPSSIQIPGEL
Test: cell-based or functional assay

binder	pERK EC50 (nM)
MIC-1(R2A, N3E) (ligand) AAEGDHCPLGPGRCCRLHTVRASLEDLGWADWVLSPREVQVTMCIGACPSQFRAANMHAQIKTSLHRLKPDTVPAPCCVPASYNPMVLIQKTDTGVSLQTYDDLLAKDCHCI	0.3 nM
(GEPS)5-MIC-1(SEQ ID NO: 1) (ligand) GEPSGEPSGEPSGEPSGEPSARNGDHCPLGPGRCCRLHTVRASLEDLGWADWVLSPREVQVTMCIGACPSQFRAANMHAQIKTSLHRLKPDTVPAPCCVPASYNPMVLIQKTDTGVSLQTYDDLLAKDCHCI	0.5 nM
